tested.target: HIV-1 integrase (wild-type IN) (Human immunodeficiency virus type 1 group M subtype B)
assay.details: HIV-1 integrase 3′-processing assay (32P-labeled 21-mer, gel)
Assay type: biochemical
condition.info: unit inferred; read-out: IN inhibition activity 3′-processing
Experimental: The oligonucleotides 21 top, 5′-[…]-3′ (SEQ ID NO:1) and 21 bot, 5′-[…]-3′ (SEQ ID NO:2) were purchased from Norris Cancer Center Core Facility (University of Southern California) and purified by UV shadowing on polyacrylamide gel. […] Gels were dried, exposed in a PhosphorImager cassette, and analyzed using a Typhoon 8610 Variable Mode Imager (Amersham Biosciences) and quantitated using ImageQuant 5.2. Percent inhibition (% I) was calculated using the following equation: %I=100×[1−(D−C)/(N−C)] […]
property.name: pIC50
One number for each entry, as −log10 of the molar value.

The following molecules have reported results that may help.
[[record]]
molecule = "CCOc1ccc(C(=O)C2=C(O)C(=O)N(c3nccs3)C2c2ccc(O)c(OC)c2)cc1 (stereo not drawn)"
tested_target = "HIV-1 integrase (wild-type IN) (Human immunodeficiency virus type 1 group M subtype B)"
result_value = 4.24

[[record]]
molecule = "COc1ccc(OC)c(C2C(C(=O)c3ccc(Cl)cc3)=C(O)C(=O)N2CCCCCC(=O)O)c1 (stereo not drawn)"
tested_target = "HIV-1 integrase (wild-type IN) (Human immunodeficiency virus type 1 group M subtype B)"
result_value = 4.06

[[record]]
molecule = "COc1ccc(C2C(C(=O)c3ccc(Br)cc3)=C(O)C(=O)N2c2cccc(C(F)(F)F)c2)cc1OC (stereo not drawn)"
tested_target = "HIV-1 integrase (wild-type IN) (Human immunodeficiency virus type 1 group M subtype B)"
result_value = 4.33

[[record]]
molecule = "Cc1cccc(Nc2nc3nonc3nc2N/N=C/c2ccc(-c3cccc(C(=O)O)c3)o2)c1"
tested_target = "HIV-1 integrase (wild-type IN) (Human immunodeficiency virus type 1 group M subtype B)"
result_value = 5.00

[[record]]
molecule = "O=C(O)CSc1nnc(-c2ccco2)c(-c2ccco2)n1"
tested_target = "HIV-1 integrase (wild-type IN) (Human immunodeficiency virus type 1 group M subtype B)"
result_value = 4.74

[[record]]
molecule = "O=C(CSc1nnc(Cc2ccccc2)n1C1CCCCC1)NNC(=O)c1ccccc1O"
tested_target = "HIV-1 integrase (wild-type IN) (Human immunodeficiency virus type 1 group M subtype B)"
result_value = 4.68

[[record]]
molecule = "O=C(O)c1cccc(-c2ccc(/C=N/N(c3ccccc3)c3ccccc3)o2)c1"
tested_target = "HIV-1 integrase (wild-type IN) (Human immunodeficiency virus type 1 group M subtype B)"
result_value = 4.38

[[record]]
molecule = "N#C/C(=C\\c1ccc(-c2ccc(O)c(C(=O)O)c2)o1)c1nc2ccccc2[nH]1"
tested_target = "HIV-1 integrase (wild-type IN) (Human immunodeficiency virus type 1 group M subtype B)"
result_value = 4.60

[[record]]
molecule = "Cn1c(SCC(=O)NNC(=O)c2ccccc2O)nnc1-c1ccccc1"
tested_target = "HIV-1 integrase (wild-type IN) (Human immunodeficiency virus type 1 group M subtype B)"
result_value = 4.19

[[record]]
molecule = "COc1ccc(C2C(C(=O)c3ccc(Br)cc3)=C(O)C(=O)N2CCc2ccccc2)cc1OC (stereo not drawn)"
tested_target = "HIV-1 integrase (wild-type IN) (Human immunodeficiency virus type 1 group M subtype B)"
result_value = 4.22


Ask: For the molecule Cc1ccc(C(=O)C2=C(O)C(=O)N(c3nccs3)C2c2ccc(Cl)cc2)cc1 (stereo not drawn) , what pIC50 is on record?
Result: 4.25
